The reported numbers originate from PubChem BioAssay (EPA / NIEHS).

Read-out: Cytochrome P450 (CYP1A1), CYP1A1 (gene 1543)
Experiment: LTEA_HepaRG_CYP1A1: Life Technologies and Expression Analysis (LTEA) Assay for Cytochrome P450 (CYP1A1) using HepaRG (AID 2283454)
Details: mRNA level, 48 h; actives raise or lower the signal
Active and inactive are the calls of the source. How the source made its calls: active means hit-call score of the fitted dose curve at least 0.9, where 1 is the maximum; inactive means score below 0.9.
// allowed return values: true (active), false (inactive)

Short answer needed: outcome of this test for "CCn1nc(Cc2ccccc2)cc1C1CCN(C[C@H]2C[C@H](N(C)[C@@H](C(=O)O)C(C)C)C[C@@H]2c2cccc(F)c2)CC1" ?
true

# outcome recorded in this test, key = "Cn1c(=O)cc(Oc2ccc(F)cc2F)c2cnc(NCC(C)(C)O)nc21"
true

Outcome logged for "O=C(CCCCCCCCc1cccnc1)N1CCC(C=C(c2ccccc2)c2ccccc2)CC1" in this assay:
true

Assay result, entry "CCCCCCCCO" — outcome?
false

Per the records of this test, what outcome belongs to CC(O)CN(CCN(CC(C)O)CC(C)O)CC(C)O (stereo not drawn) ?
true

Outcome? "C[C@](N)(Cc1ccc(O)c(O)c1)C(=O)O"
true

Assay outcome for "CC(=O)OCCC(C)C" : what was it?
true

Hey, what did the test say about "Cc1ccc(C)c(O)c1" ?
true

What is the recorded call for this molecule in the test? "COC(=O)CC(=O)OC"
true

Assay result, entry "Cc1ccc(N)cc1O" — outcome?
true

Assay outcome for "COCCOc1cc2cc(C(=O)NC3CCN(C(C)C)CC3)n(CC(=O)Nc3ccc(Cl)cn3)c2cn1" : what was it?
true

Call for entry COc1ccc(-n2nc(C(F)F)cc2-c2ccc(S(C)=O)cc2)cc1 (stereo not drawn) :
true

Which outcome was entered for the molecule "CCOCCOCCOCCO" in this test?
false

Test call for this molecule, please: "COC(=O)c1ccccc1O"
false

Record lookup: outcome of this test for "CCCCCCc1ccc(O)cc1O" ?
true

Recorded call for "On1ccccc1=S" ?
false

Fill in: this test's call for "COc1ccc2sc(C(=O)Nc3nnn[nH]3)c(OC(C)C)c2c1" is ___
true

Field: outcome | Entry: CCCCC(CC)COC(=O)c1ccc(C(=O)OCC(CC)CCCC)cc1 (stereo not drawn)
false

Test call, this molecule: "CCNc1ccccc1"
true

Check the results log: what was the call for "Cc1ccc(S(=O)(=O)O)cc1C" ?
true

Dear colleague, could you share the recorded outcome for "CCOCCO" when you have a moment?
false

Hey, what did the test say about "O=C(O)c1cccc(N(Cc2cccnc2)c2ccc(OC(F)F)c(OC(F)F)c2)c1" ?
true

What did this assay record as the result for "COCCOCCOCCOC" ?
false

How did this test come out for "CCc1cc(SCc2sc(-c3ccc(C(F)(F)F)cc3)nc2CN2CCN(c3ccc(OC)cc3)CC2)ccc1OCC(=O)O" ?
true

What did the test return for "CC(C)CCCCCCCOC(=O)CCCCC(=O)OCCCCCCCC(C)C" ?
true

How was "CC(C)c1cccc(C(C)C)c1N1C(=O)c2ccc(O)cc2C1=O" classified in this test?
true

I would be grateful if you could indicate the recorded call for "CN(C)c1ccc(N=NS(=O)(=O)O)cc1" .
true

// outcome(item) with item = "C=CCCCCCCCCC(=O)O"
true

---

Experiment: ATG_CRE_CIS: Attagene CIS-FACTORIAL HepG2 Assay for human cAMP Responsive Element (CRE) binding protein 3 (AID 2282926)
Details: HepG2 CRE cis-reporter, Attagene multiplexed mRNA; actives raise or lower the signal
Activity calls are given as the source filed them. The calls were made as follows: active = hit-call score of the fitted dose curve at least 0.9, where 1 is the maximum; inactive = score below 0.9.
Answer with one of the outcomes given here: 1 (yes) = active, 0 (no) = inactive

Tell me the recorded outcome of this test for "Oc1ccc2c(c1)-c1ccccc1C2" .
1 (yes)

Please indicate how the test categorized CC(C)CC(C)(O)C#CC(C)(O)CC(C)C (centres undefined) .
0 (no)

Hey, what did the test say about "CCc1cc(SCc2sc(-c3ccc(C(F)(F)F)cc3)nc2CN2CCN(c3ccc(OC)cc3)CC2)ccc1OCC(=O)O" ?
0 (no)

Test call for this compound, please: "CN(C)c1ccc(N=NS(=O)(=O)O)cc1"
0 (no)

So what was the verdict on "CCCC(=O)OCC" in this test?
0 (no)

Please share the test call associated with "CCCN(C1CCN(C(=O)C2CCNCC2)CC1)[C@@H]1CCc2ccc(OC)cc2C1" .
0 (no)

Record request — test call for "CC(=O)OCCC(C)C"
0 (no)

Could you please tell me the result logged for "Cc1c(-c2cccnc2)c2ccccc2n1CCCCC(=O)O" in this assay?
0 (no)

I would be grateful if you could indicate the recorded call for "C=CC(=C)CCC=C(C)C" .
0 (no)

State the result this test recorded for "COC(=O)CC(=O)OC" .
0 (no)

Each compound tested received a call. Report the one for "O=P(OC(CCl)CCl)(OC(CCl)CCl)OC(CCl)CCl" .
1 (yes)

Which outcome was assigned to "O=C(CCCCCCCCc1cccnc1)N1CCC(C=C(c2ccccc2)c2ccccc2)CC1" in this test?
1 (yes)

Please state the recorded outcome for this compound: "COC(=O)c1ccccc1O"
0 (no)

What classification did "Clc1nc(Cl)c(Cl)c(Cl)c1Cl" end up with in this test?
0 (no)

Dear all, I need the recorded test outcome for "Cc1ccc(O)cc1" , thank you.
0 (no)

Given "Cn1c(=O)c2c(ncn2C)n(C)c1=O" , state the outcome it received in this test.
0 (no)

Outcome logged for "CCCCCCCCO" in this assay:
0 (no)

Any idea what this test logged for "CC1(C)C(=O)N(Br)C(=O)N1Br" ?
0 (no)

What call does the record list for "CCC(C)(C)C(=O)O[C@H]1C[C@@H](C)C=C2C=C[C@H](C)[C@H](CC[C@@H]3C[C@@H](O)CC(=O)O3)[C@H]21" ?
0 (no)

// return assay outcome for "CC(C)CCO"
0 (no)

Each compound tested received a call. Report the one for "NC(=O)NO" .
0 (no)

Dear all, I need the recorded test outcome for "Nc1nc2ncc(CNc3ccc(C(=O)N[C@@H](CCC(=O)O)C(=O)O)cc3)nc2c(=O)[nH]1" , thank you.
0 (no)

Which outcome did this test record for the compound "O=C(O)CCN(C1(C(=O)NO)CCCC1)S(=O)(=O)c1ccc(Oc2ccc(F)cc2)cc1" ?
0 (no)

Hey, what did the test say about "CC(=O)OC[C@H]1O[C@@](COC(C)=O)(O[C@H]2O[C@H](COC(C)=O)[C@@H](OC(C)=O)[C@H](OC(C)=O)[C@H]2OC(C)=O)[C@@H](OC(C)=O)[C@@H]1OC(C)=O" ?
0 (no)

Lab log entry: CC(O)CN(CCN(CC(C)O)CC(C)O)CC(C)O (centres undefined) — outcome as called in the assay?
0 (no)

Dear all, I need the recorded test outcome for "O=C(O)c1cc(N=Nc2ccc(S(=O)(=O)Nc3ccccn3)cc2)ccc1O" , thank you.
0 (no)

Any idea what this test logged for "CCCCCCCCCCCCc1ccccc1" ?
0 (no)

Any idea what this test logged for "Nc1cccc(N)c1" ?
0 (no)

Check the results log: what was the call for "COc1ccc(/C=C/S(=O)(=O)NC(=O)c2ccc(C)cc2Cl)cc1" ?
0 (no)

What classification did "O=C(O)c1cccc(Oc2ccccc2)c1" end up with in this test?
0 (no)

State the result this test recorded for "CCOCCO" .
0 (no)

Which outcome was assigned to "CC(C)c1cccc(C(C)C)c1N1C(=O)c2ccc(O)cc2C1=O" in this test?
1 (yes)

Answer briefly: the call reported for "CCOCCOCCOCCO" in this assay.
0 (no)

Dear colleague, could you share the recorded outcome for "CCN(C(=O)c1cc(C)cc(OC[C@H](C)Nc2ccncc2)c1)C(C)C" when you have a moment?
0 (no)

Which outcome was entered for the compound "C[C@](N)(Cc1ccc(O)c(O)c1)C(=O)O" in this test?
0 (no)

# outcome recorded in this test, key = Fc1ccccc1[C@@H](F)COC1CCC(Nc2ncnc3[nH]ncc23)CC1 (some centres undefined)
1 (yes)

Query: recorded result category for "CC1=CC(=O)CC(C)(C)C1" in this test
0 (no)

Could you please tell me the result logged for "Nc1ccc(Nc2ccccc2)cc1" in this assay?
0 (no)

For this compound, state the assay outcome: "O=C(NS(=O)(=O)/C=C/c1ccccc1)c1ccc(F)cc1Cl"
0 (no)

Dear all, I need the recorded test outcome for "Cn1c(=O)cc(Oc2ccc(F)cc2F)c2cnc(NCC(C)(C)O)nc21" , thank you.
0 (no)

Given "CC(=O)c1ccc2c(c1)[C@H](NC(=O)c1ccc(F)cc1)[C@@H](O)C(C)(C)O2" , state the outcome it received in this test.
0 (no)

Per the assay record, what outcome was assigned to "C1=CCCC=CCCC=CCC1" ?
0 (no)

Outcome? "CC[C@H]1OC(=O)[C@H](C)[C@@H](O[C@H]2C[C@@](C)(OC)[C@@H](O)[C@H](C)O2)[C@H](C)[C@@H](O[C@@H]2O[C@H](C)C[C@H](N(C)C)[C@H]2O)[C@](C)(O)C[C@@H](C)C(=O)[C@H](C)[C@@H](O)[C@]1(C)O"
0 (no)

Call for entry "O=C1CCCCCN1" :
0 (no)

Lab log entry: "Cc1ccc(N)cc1O" — outcome as called in the assay?
0 (no)

Record lookup: outcome of this test for COc1ccc(-n2nc(C(F)F)cc2-c2ccc(S(C)=O)cc2)cc1 (centres undefined) ?
0 (no)

What call does the record list for CC/C(=C\C(=N/O)C(N)=O)C(C)[N+](=O)[O-] (centres undefined) ?
0 (no)

# fetch the recorded call for CCCCC(CC)COC(=O)c1ccc(C(=O)OCC(CC)CCCC)cc1 (centres undefined) here
0 (no)

Called result for "Cc1[nH]cnc1C[C@H]1CCc2c(C)c3ccccc3n2C1=O"
1 (yes)
